- Study System: Mitogen-activated protein kinase 8 (Homo sapiens, UniProt P45983)
- Sequence (P45983 whole entry): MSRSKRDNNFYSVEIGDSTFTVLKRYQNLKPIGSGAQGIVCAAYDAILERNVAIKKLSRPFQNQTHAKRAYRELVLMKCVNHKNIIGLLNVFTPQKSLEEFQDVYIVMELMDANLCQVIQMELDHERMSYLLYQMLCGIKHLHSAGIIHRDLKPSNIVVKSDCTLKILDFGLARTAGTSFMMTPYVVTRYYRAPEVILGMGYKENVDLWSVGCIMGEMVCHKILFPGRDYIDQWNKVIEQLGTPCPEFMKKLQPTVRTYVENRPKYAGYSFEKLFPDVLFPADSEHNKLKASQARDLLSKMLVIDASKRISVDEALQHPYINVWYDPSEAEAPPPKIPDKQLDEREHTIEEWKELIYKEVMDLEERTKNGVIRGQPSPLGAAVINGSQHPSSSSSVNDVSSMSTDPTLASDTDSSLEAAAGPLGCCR
# key: entry, value: IC50
Could you give me the number in nM? Just the number is fine.

Previously resolved entries follow.
Look up IC50 with Mitogen-activated protein kinase 8 (Homo sapiens, UniProt P45983) for this compound: "CS(=O)(=O)NCCCOc1cccc2c1cnn2-c1ccnc(N[C@H]2CC[C@H](O)CC2)n1"
56

Look up IC50 with Mitogen-activated protein kinase 8 (Homo sapiens, UniProt P45983) for this compound: "CC(=O)N[C@H]1CC[C@H](Nc2nccc(-n3nnc4ccccc43)n2)CC1"
39

Look up IC50 with Mitogen-activated protein kinase 8 (Homo sapiens, UniProt P45983) for this compound: "CS(=O)(=O)CCCOc1cccc2c1ccn2-c1ccnc(N[C@H]2CC[C@H](C(=O)N3CC[C@@H](O)C3)CC2)n1"
9.7

Look up IC50 with Mitogen-activated protein kinase 8 (Homo sapiens, UniProt P45983) for this compound: "CC(C)(O)[C@H]1CC[C@H](Nc2nccc(-n3ncc4c(OCCCS(C)(=O)=O)cccc43)n2)CC1"
4

Look up IC50 with Mitogen-activated protein kinase 8 (Homo sapiens, UniProt P45983) for this compound: "N[C@H]1CC[C@H](Nc2nccc(-n3nnc4ccccc43)n2)CC1"
74

Look up IC50 with Mitogen-activated protein kinase 8 (Homo sapiens, UniProt P45983) for this compound: "O=C([C@H]1CC[C@H](Nc2nccc(-n3nnc4ccccc43)n2)CC1)N1CCCC1"
120

Next:
Look up IC50 with Mitogen-activated protein kinase 8 (Homo sapiens, UniProt P45983) for this compound: "O[C@H]1CC[C@H](Nc2nccc(-n3nnc4ccccc43)n2)CC1"
29

* * *

# key: entry, value: IC50
- Study System: c-Jun N-terminal kinase, JNK (Homo sapiens, UniProt P45983+P53779+P45984)
- Measurement Notes: Inhibition of JNK in human SW1353 cells assessed as inhibition of TNFalpha-induced c-Jun phosphorylation incubated for 30 mins prior to TNFalpha induction measured after 20 mins
- Format: cell-based
Could you give me the number in µM? Just the number is fine.

Previously resolved entries follow.
Look up IC50 with c-Jun N-terminal kinase, JNK (Homo sapiens, UniProt P45983+P53779+P45984) for this compound: "O[C@H]1CC[C@H](Nc2nccc(-n3nnc4ccccc43)n2)CC1"
0.79

Look up IC50 with c-Jun N-terminal kinase, JNK (Homo sapiens, UniProt P45983+P53779+P45984) for this compound: "N[C@H]1CC[C@H](Nc2nccc(-n3nnc4ccccc43)n2)CC1"
0.54

Then there is this compound:
Look up IC50 with c-Jun N-terminal kinase, JNK (Homo sapiens, UniProt P45983+P53779+P45984) for this compound: "O=C([C@H]1CC[C@H](Nc2nccc(-n3nnc4ccccc43)n2)CC1)N1CCOCC1"
1.8

* * *

- Study System: 5'-AMP-activated protein kinase catalytic subunit alpha-2 (Homo sapiens)
- Measurement Notes: Competitive binding affinity to AMPKalpha2 (unknown origin) at 10 uM in presence of ATP relative to control
# key: entry, value: inhibition

Previously resolved entries follow.
Data request, read-out inhibition, for "O[C@H]1CC[C@H](Nc2nccc(-n3nnc4ccccc43)n2)CC1"
74%

Data request, read-out inhibition, for "O[C@H]1CC[C@H](Nc2nccc(-n3ccc4ccccc43)n2)CC1"
< 50%

Then there is this molecule:
Data request, read-out inhibition, for "O[C@H]1CC[C@H](Nc2nccc(-n3ncc4ccccc43)n2)CC1"
< 50%
